CL values by entry
METHOD DESCRIPTION: Pharmacokinetics in Yucatan mini-pigs, single subcutaneous or intravenous dose
Assay type: in vivo
CONDITION PARAMETERS: single intravenous dose 19 nmol/kg, male Yucatan pigs, individual animal
*1 amine or outer side, *2 acyl side, *3 side chain or, on linkers, in order; H or OH if unused. Side-chain parts run from the residue outwards. [ ]: non-standard residue; d: D form. The star is where a group is joined. C20 diacid = O=C(O)CCCCCCCCCCCCCCCCCCC(=O)*; γGlu = O=C(O)[C@H](CCC(=O)[*:2])N[*:1]; εLys = N[C@@H](CCCCN[*:1])C(=O)[*:2]; αMeL = CC(C)C[C@](C)(N)C(=O)O; AEEA = NCCOCCOCC(=O)O; Aib = CC(C)(N)C(=O)O
RECORDED METRIC: CL (mL/day/kg)

substance="Ac-GSPSIVTS[αMeL]DVPT[Aib][αMeL]LQKLLEQERAEKARQQAK([γGlu-AEEA-εLys-C20 diacid])EAAEILAQV-NH2 [SEQ ID NO: 2]" recorded_measurement=13.7
substance="Ac-GSPSIVTS[αMeL]DVPT[Aib][αMeL]LQKILEQERAEKARQQAK([γGlu-AEEA-εLys-C20 diacid])EAAEILAQV-NH2 [SEQ ID NO: 1]" recorded_measurement=22.2
substance="{C20 diacid-εLys-AEEA-γGlu}-GSPSIVTS[αMeL]DVPT[Aib][αMeL]LQKILEQERAEKARQQATEAAEILAQV-NH2 [SEQ ID NO: 25]" recorded_measurement=12.2
substance="Ac-PPPIVTS[αMeL]DVPT[Aib][αMeL]LQKLLEQERAEKARQQAK([γGlu-AEEA-εLys-C20 diacid])EAAEILAQV-NH2 [SEQ ID NO: 48]" recorded_measurement=11
